ASSAYED SYSTEM: AgLsb1
PROCEDURE TEXT: SPOT peptide array binding signal intensity (averaged, normalized) (arbitrary units (background-subtracted, floor 0; scale differs between SH3 domains)); higher = stronger binding of the SH3 domain to the peptide
Reported SPOT peptide array binding signal intensity by item:
// return a plain number; no unit text

INSERT INTO measurements (binder, readout_value) VALUES
  ('PKMLPIPSKPTLFDL', 2),
  ('SGVRLPAPPPPPRRG', 699),
  ('SSAAPPPPPRRATPE', 355),
  ('RKLRTVPGVPLIHLT', 2),
  ('QRIRKIPGIPLMSVG', 13.8);

Req: Answer with the recorded SPOT peptide array binding signal intensity for the binder listed here: `HRRRRVFSIPSLKSI`
Resp: 51.2
